Assay: Percutaneous administration to anesthetized rats (glass cell on abdominal skin), plasma concentration by HPLC and residual drug recovery
Assay type: in vivo, rat (Jcl SD strain)
Conditions: Jcl SD, rat, plasma, topical or ocular, 8 mg/kg; oily base 2.5% 1-menthol/20% ethanol/77.5% isopropyl myristate; phosphate salt 5.6 mg/mL; N=3
observedProperty: Tmax
Answer format reminder: number followed by unit.

Per the record, `c1cc(-c2nc3c4c(ncc3[nH]2)CCOC4)no1` has Tmax of 1 h

---

Test: Percutaneous administration to anesthetized rats (glass cell on abdominal skin), plasma concentration by HPLC and residual drug recovery
Assay type: in vivo, rat (Jcl SD strain)
Settings: Jcl SD, rat, plasma, topical or ocular, 8 mg/kg, pH 4, base pH 4: 3% 1-menthol/30% ethanol/67% phosphate buffer; phosphate salt 5.6 mg/mL; N=3
observedProperty: AUC (ng·h/mL)
Numbers only, in ng·h/mL.

Per the record, c1cc(-c2nc3c4c(ncc3[nH]2)CCOC4)no1 [Compound (I-1)] has AUC of 1810
